Test: chemical genetic growth profiling, strain panel (AID 1159580);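 further: tested at 20 µM; growth read once vehicle control cultures reached saturation at 30 °C; 1 = growth at the plate median or of vehicle wells; lower values mean less growth of the strain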
Conditions: S. cerevisiae deletion strains, growth OD, locus YPR163C, strain tif3, active compounds read low
Among all 5,500 compounds or so, about 2,000 (36%) were called active. Roughly 18% stayed inconclusive and do not appear here. This is one part of the list.
Exercise: state measured normalized growth for each of the compounds provided.
Could you respond with only the numeric value?

// normalized growth value for CC(=O)c1c(O)c(C)c(O)c2c1oc1c(C(C)=O)c(O)c(C)c(O)c12 : 0.98

// normalized growth value for CO[C@H]1[C@H](O)[C@H](O[C@H]2CC[C@]3(C)C4CC[C@]5(C)C(C6=CC(=O)OC6)CC[C@]5(O)C4CC[C@@H]3C2)O[C@@H](C)[C@@H]1O (stereo partly specified) : 1.01

// normalized growth value for CC(C)(O)[C@@H]1[C@H]2OC(=O)[C@@H]1[C@]1(O)C[C@H]3O[C@]34C(=O)O[C@H]2[C@]14C : 1.03

// normalized growth value for C=C(C)[C@@H]1[C@H]2OC(=O)[C@@H]1[C@]1(O)C[C@H]3O[C@]34C(=O)O[C@H]2[C@]14C : 1

// normalized growth value for COc1ccc2c(c1OC)C(=O)O[C@H]2[C@H]1c2cc3c(cc2CCN1C)OCO3 : 1.02

// normalized growth value for CC1=C(CC(=O)O)c2cc(F)ccc2/C1=C\c1ccc(S(C)=O)cc1 (stereo unspecified) : 1.02

----------
Test: chemical genetic growth profiling, strain panel (AID 1159580)
Conditions: S. cerevisiae deletion strains, growth OD, locus YOR136W, strain idh2
In all, about 5,500 compounds went through this assay and about 2,000 (36%) were called active. Another 18% or so got no clear call; they are omitted. No stated cut-off is given here; in the data, active means normalized growth mostly below about 0.91 (no sharp cut-off); inconclusive means no clear call, values can overlap the other calls; inactive means mostly above about 0.92. Some of the results follow.
A correct response names exactly one class from active, inactive

INPUT: # outcome recorded in this test, key = CCCCCCCCCCCCCCCC[N+](C)(C)C
OUTPUT: active

INPUT: # outcome recorded in this test, key = COc1cc2c(cc1OC)C1C(=O)c3c(O)cc4c(c3OC1CO2)C=CC(C)(C)O4 (configuration not stated)
OUTPUT: inactive

INPUT: # outcome recorded in this test, key = COc1ccc2c(c1)O[C@@H]1COc3cc(OC)c(OC)cc3[C@@H]1C2=O
OUTPUT: active

INPUT: # outcome recorded in this test, key = C[C@@H]1[C@H]2[C@H](O[C@@H]3O[C@H](CO)[C@@H](O)[C@H](O)[C@H]3O)OC=C(C(=O)O)[C@H]2C[C@@H]1O
OUTPUT: inactive

INPUT: # outcome recorded in this test, key = COc1cc2c(cc1OC)C1C(=O)c3c(OC)cc4c(c3OC1CO2)CCC(C)(C)O4 (configuration not stated)
OUTPUT: inactive

INPUT: # outcome recorded in this test, key = COc1cc2c(cc1OC)[C@@H]1C(=O)c3ccc(OC)c(CC=C(C)C)c3O[C@@H]1CO2
OUTPUT: inactive

INPUT: # outcome recorded in this test, key = CC(C)CC(NC(=O)C(Cc1ccccc1)NC(=O)CNC(=O)CNC(=O)C(N)Cc1ccc(O)cc1)C(=O)O (configuration not stated)
OUTPUT: inactive

INPUT: # outcome recorded in this test, key = COP(=O)(OC)OC=C(Cl)Cl
OUTPUT: inactive

INPUT: # outcome recorded in this test, key = COc1cc(NC(C)CCCN)c2ncccc2c1 (configuration not stated)
OUTPUT: inactive

INPUT: # outcome recorded in this test, key = COc1cc2c(cc1OC)C1C(=O)c3ccc4c(c3OC1CO2)CCC(C)(C)O4 (configuration not stated)
OUTPUT: inactive

INPUT: # outcome recorded in this test, key = COc1cc2c(cc1OC)C1C(=O)c3c(cc4c(c3O)C=CC(C)(C)O4)OC1CO2 (configuration not stated)
OUTPUT: inactive

INPUT: # outcome recorded in this test, key = COc1cc2c(cc1OC)[C@@H]1C(=O)c3ccc4oc(C(C)C)cc4c3O[C@@H]1CO2
OUTPUT: inactive

----------
Exercise: state measured normalized growth for each of the compounds provided.
Assay: chemical genetic growth profiling, strain panel (AID 1159580);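 further: tested at 20 µM; growth read once vehicle control cultures reached saturation at 30 °C; 1 = growth at the plate median or of vehicle wells; lower values mean less growth of the strain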
Conditions: S. cerevisiae deletion strains, growth OD, locus YGL248W, strain PDE1, active compounds read low
Hit rate of the full screen: of about 5,500 compounds, about 2,000 (36%) were called active. About 18% were inconclusive and are not listed. The list shows a part of the results.
Could you respond with only the numeric value?

// normalized growth value for CC1CC2C3CC(F)C4=CC(=O)C=CC4(C)C3(F)C(O)CC2(C)C1(O)C(=O)CO (stereo unspecified) : 1.01

// normalized growth value for c1cncc(C2CCCCN2)c1 (stereo unspecified) : 1.03

// normalized growth value for CCOC(=O)[C@H](CCc1ccccc1)N[C@H]1CCc2ccccc2N(CC(=O)O)C1=O : 0.983

// normalized growth value for CC1=C(/C=C/C(C)=C/C=C/C(C)=C/C=C/C=C(C)/C=C/C=C(C)/C=C/C2=C(C)C(=O)C(O)CC2(C)C)C(C)(C)CC(O)C1=O (stereo unspecified) : 0.987

// normalized growth value for COc1cc(NC(C)CCCN)c2ncccc2c1 (stereo unspecified) : 1.01

// normalized growth value for CCS(=O)CCSP(=O)(OC)OC (stereo unspecified) : 1.01

// normalized growth value for CC(=O)c1c(O)c(C)c(O)c2c1oc1c(C(C)=O)c(O)c(C)c(O)c12 : 0.973

// normalized growth value for OCC(O)C(O)C(O)CO (stereo unspecified) : 0.999

// normalized growth value for CCCCCCCCCCCCCCCC(=O)OC/C=C(C)/C=C/C=C(C)/C=C/C1=C(C)CCCC1(C)C : 1

// normalized growth value for CC[C@H]1OC(=O)[C@H](C)[C@@H](O[C@H]2C[C@@](C)(OC)[C@@H](O)[C@H](C)O2)[C@H](C)[C@@H](O[C@@H]2O[C@H](C)C[C@H](N(C)C)[C@H]2O)[C@](C)(O)C[C@@H](C)CN(C)[C@H](C)[C@@H](O)[C@]1(C)O : 0.992

// normalized growth value for COc1cc(NS(=O)(=O)c2ccc(N)cc2)nc(OC)n1 : 1.01

----------
Experiment: chemical genetic growth profiling, strain panel (AID 1159580);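 further: tested at 20 µM; growth read once vehicle control cultures reached saturation at 30 °C; 1 = growth at the plate median or of vehicle wells; lower values mean less growth of the strain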
Details: S. cerevisiae deletion strains, growth OD, locus YNL153C, strain GIM3, active compounds read low
Among all 5,500 compounds or so, about 2,000 (36%) were called active. Roughly 18% stayed inconclusive and do not appear here. Some of the results follow.
experimental readout: normalized growth
Could you respond with only the numeric value?

// normalized growth value for CN(N=O)c1cc(O)ccc1O : 1.02

// normalized growth value for Cc1c(C(=O)c2cccc3ccccc23)c2cccc3c2n1[C@H](CN1CCOCC1)CO3 : 0.983

// normalized growth value for O=c1onc2cnc3ccccc3n12 : 0.777

// normalized growth value for Oc1cc2c(c(Cl)c1O)CCNCC2c1ccccc1 (configuration not stated) : 0.967

// normalized growth value for CCC(NC(C)C)C(O)c1ccc(O)c(O)c1 (configuration not stated) : 1

// normalized growth value for CN1CCc2cc(O)c(O)cc2C(c2ccccc2)C1 (configuration not stated) : 1.01

// normalized growth value for Oc1ccc(C2CNCCc3c2cc(O)c(O)c3Cl)cc1 (configuration not stated) : 0.935

----------
Assay: chemical genetic growth profiling, strain panel (AID 1159580);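 further: tested at 20 µM; growth read once vehicle control cultures reached saturation at 30 °C; 1 = growth at the plate median or of vehicle wells; lower values mean less growth of the strain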
Details: S. cerevisiae deletion strains, growth OD, locus YGR135W, strain pre9
Among all 5,500 compounds or so, about 2,000 (36%) were called active. Not shown: some 18% with an inconclusive outcome. No stated cut-off is given here; in the data, active means normalized growth mostly below about 0.91 (no sharp cut-off); inconclusive means no clear call, values can overlap the other calls; inactive means mostly above about 0.92. This is one part of the list.
A correct response names exactly one class from active, inactive

INPUT: # outcome recorded in this test, key = COc1cc2c(cc1OC)[C@@H]1C(=O)c3ccc(O)c(CC=C(C)C)c3O[C@@H]1CO2
OUTPUT: inactive

INPUT: # outcome recorded in this test, key = CC1(C)OC(=O)NC1=O
OUTPUT: inactive

INPUT: # outcome recorded in this test, key = C[C@H]1OC(n2cc(F)c(=O)[nH]c2=O)C(O)[C@@H]1O (stereo not given in full)
OUTPUT: inactive

INPUT: # outcome recorded in this test, key = CCOC(=O)c1c(C)cc(O)c(C)c1O
OUTPUT: inactive

INPUT: # outcome recorded in this test, key = COc1cc2c(cc1OC)[C@@H]1C(=O)c3ccc4c(c3O[C@@H]1CO2)C=CC(C)(C)O4
OUTPUT: inactive

INPUT: # outcome recorded in this test, key = CNC(C)[C@H](O)c1ccccc1 (stereo not given in full)
OUTPUT: inactive

INPUT: # outcome recorded in this test, key = CCC(=O)O[C@H]1[C@H](O[C@@H]2[C@@H](C)[C@H](O[C@H]3C[C@@](C)(OC)[C@@H](O)[C@H](C)O3)[C@@H](C)C(=O)O[C@H](CC)[C@@](C)(O)[C@H](O)[C@@H](C)C(=O)[C@H](C)C[C@@]2(C)O)O[C@H](C)C[C@@H]1N(C)C
OUTPUT: inactive

INPUT: # outcome recorded in this test, key = COC1=C(OC)C(=O)C(C/C=C(\C)CC/C=C(\C)CC/C=C(\C)CC/C=C(/C)CC/C=C(\C)CC/C=C(\C)CC/C=C(\C)CC/C=C(\C)CC/C=C(\C)CCC=C(C)C)=C(C)C1=O
OUTPUT: inactive

INPUT: # outcome recorded in this test, key = CCOC(=O)CCC(=O)O[C@H]1[C@H](O[C@@H]2[C@@H](C)[C@H](O[C@H]3C[C@@](C)(OC)[C@@H](O)[C@H](C)O3)[C@@H](C)C(=O)O[C@H](CC)[C@@](C)(O)[C@H](O)[C@@H](C)C(=O)[C@H](C)C[C@@]2(C)O)O[C@H](C)C[C@@H]1N(C)C
OUTPUT: inactive

INPUT: # outcome recorded in this test, key = COc1cc2c(cc1OC)C1C(=O)c3c(cc4c(c3O)C=CC(C)(C)O4)OC1CO2 (stereo not given)
OUTPUT: inactive

INPUT: # outcome recorded in this test, key = COc1ccc2c3c1O[C@H]1C[C@@H](O)C=C[C@@]31CCN(C)C2
OUTPUT: inactive

INPUT: # outcome recorded in this test, key = C=C1C2CC[C@H]3[C@]4(C)C[C@H](OC5OC(CO)C(OS(=O)(=O)O)C(OS(=O)(=O)O)C5OC(=O)CC(C)C)C[C@@H](C(=O)O)[C@H]4CC[C@]3(C2)[C@H]1O (stereo not given in full)
OUTPUT: inactive

INPUT: # outcome recorded in this test, key = CC1=C(/C=C/C(C)=C/C=C/C(C)=C/C=C/C=C(C)/C=C/C=C(C)/C=C/C2=C(C)C(=O)C(O)CC2(C)C)C(C)(C)CC(O)C1=O (stereo not given)
OUTPUT: inactive

INPUT: # outcome recorded in this test, key = CN1CCC(=C2c3ccccc3CC(=O)c3sccc32)CC1
OUTPUT: inactive

INPUT: # outcome recorded in this test, key = O=C(O)C1(O)C[C@@H](O)C(O)[C@H](O)C1 (stereo not given in full)
OUTPUT: inactive

INPUT: # outcome recorded in this test, key = COc1cc2c(cc1OC)[C@@H]1C(=O)c3ccc4oc(C(C)C)cc4c3O[C@@H]1CO2
OUTPUT: inactive

INPUT: # outcome recorded in this test, key = CC(=O)N[C@@H](CC(C)C)C(=O)O
OUTPUT: inactive

INPUT: # outcome recorded in this test, key = COc1cc(NS(=O)(=O)c2ccc(N)cc2)nc(OC)n1
OUTPUT: inactive

INPUT: # outcome recorded in this test, key = CN(C)C(=S)SSC(=S)N(C)C
OUTPUT: active

INPUT: # outcome recorded in this test, key = CC(CCc1ccccc1)NC(C)C(O)c1ccc(O)cc1 (stereo not given)
OUTPUT: inactive

INPUT: # outcome recorded in this test, key = CC1=C(/C=C/C(C)=C/C=C/C(C)=C/C=C/C=C(C)/C=C/C=C(C)/C=C/C23OC2(C)CC(O)CC3(C)C)C(C)(C)CC(O)C1 (stereo not given)
OUTPUT: inactive

INPUT: # outcome recorded in this test, key = CC(C)(O)[C@@H]1[C@H]2OC(=O)[C@@H]1[C@]1(O)C[C@H]3O[C@]34C(=O)O[C@H]2[C@]14C
OUTPUT: inactive

INPUT: # outcome recorded in this test, key = COc1cc(O)c(C(=O)/C=C/c2ccccc2)c(OC)c1
OUTPUT: active

INPUT: # outcome recorded in this test, key = CC(NCCc1ccc(O)cc1)C(O)c1ccc(O)cc1 (stereo not given)
OUTPUT: inactive

INPUT: # outcome recorded in this test, key = NC(=O)c1ccc[n+]([C@@H]2O[C@H](COP(=O)([O-])OP(=O)(O)OC[C@H]3O[C@@H](n4cnc5c(N)ncnc54)[C@H](O)[C@@H]3O)[C@@H](O)[C@H]2O)c1
OUTPUT: inactive

INPUT: # outcome recorded in this test, key = CCCCCCCCCCCCCCCC(=O)OC/C=C(C)/C=C/C=C(C)/C=C/C1=C(C)CCCC1(C)C
OUTPUT: inactive

INPUT: # outcome recorded in this test, key = C=C(C)[C@@H]1[C@H]2OC(=O)[C@@H]1[C@]1(O)C[C@H]3O[C@]34C(=O)O[C@H]2[C@]14C
OUTPUT: inactive

INPUT: # outcome recorded in this test, key = c1ccc(N=Nc2ccccc2)cc1
OUTPUT: inactive

INPUT: # outcome recorded in this test, key = CC(Oc1ccccc1)C(=O)N[C@@H]1C(=O)N2[C@@H]1SC(C)(C)[C@@H]2C(=O)O (stereo not given in full)
OUTPUT: inactive

INPUT: # outcome recorded in this test, key = CC1=C(C(C)O)C2=NC1C=c1[nH]c(c(C)c1C(C)O)=Cc1[nH]c(c(CCC(=O)O)c1C)C=c1[nH]c(c(C)c1CCC(=O)O)=C2 (stereo not given)
OUTPUT: inactive

INPUT: # outcome recorded in this test, key = CN[C@@H](C)[C@@H](O)c1ccccc1
OUTPUT: inactive

INPUT: # outcome recorded in this test, key = CCOC(=O)C(C)(C)Oc1ccc(Cl)cc1
OUTPUT: inactive

INPUT: # outcome recorded in this test, key = C[C@@H]1[C@H]2[C@H](O[C@@H]3O[C@H](CO)[C@@H](O)[C@H](O)[C@H]3O)OC=C(C(=O)O)[C@H]2C[C@@H]1O
OUTPUT: inactive

INPUT: # outcome recorded in this test, key = CCN(CC)CCNC(=O)c1cc(Br)c(N)cc1OC
OUTPUT: inactive

INPUT: # outcome recorded in this test, key = COC1=CC(=O)C[C@@H](C)[C@]12Oc1c(Cl)c(OC)cc(OC)c1C2=O
OUTPUT: inactive
